Value source: patent US20220315572A1

# Procedure summary: PK mouse
# Format: in vivo
# Measurement conditions: brain and plasma (unbound); 2 mg/kg IV dose - mouse; unbound brain to unbound plasma; read-out: Kpu, u
Quantity: Kp

INSERT INTO assay_data (molecule, reported) VALUES
  ('C[C@@H]1C[C@@H](NC(=O)c2nnc(-c3cccc(C#N)c3)o2)CN1C#N [Example 1]', 0.01);

====

# Test system: P-glycoprotein (MDR1), human
# Procedure summary: MDR1-MDCK flux assay
# Assay type: in vitro ADME, Canine
# Measurement conditions: dog, A-B
Quantity: Papp A→B (×10⁻⁶ cm/s)

INSERT INTO measurements (structure_smiles, quantity, reported) VALUES
  ('C[C@@H]1C[C@@H](NC(=O)c2nnc(-c3cccc(C#N)c3)o2)CN1C#N', 'Papp A→B', 0.9);

====

# Measured on: Cathepsin V (Homo sapiens)
# Sequence (O60911 114-334, species assumed): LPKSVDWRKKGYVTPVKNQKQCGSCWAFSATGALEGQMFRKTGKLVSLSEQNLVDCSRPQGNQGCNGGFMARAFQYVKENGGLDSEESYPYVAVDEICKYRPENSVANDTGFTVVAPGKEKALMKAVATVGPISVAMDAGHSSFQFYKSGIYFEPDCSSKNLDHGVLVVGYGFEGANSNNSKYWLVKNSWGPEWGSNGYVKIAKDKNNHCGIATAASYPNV
# Procedure summary: Cathepsin IC50, cathepsin V
# Assay type: biochemical
The label is t for IC50 below 6 µM and f for IC50 equal to or exceeding 6 µM.

INSERT INTO assay_data (compound, qualitative_label) VALUES
  ('COC[C@@H]1C[C@@H](NC(=O)c2nnc(-c3cc(C#N)ccc3OC)o2)CN1C#N [Example 4]', 'f'),
  ('COC[C@@H]1C[C@@H](NC(=O)c2nnc(-c3cccc(C#N)c3)o2)CN1C#N [Example 2]', 'f'),
  ('N#CN1CCC(NC(=O)c2cc(-c3cccc(Cl)c3)no2)C1 (stereo not shown) [B, reference compound]', 't'),
  ('N#CN1CCC(C(=O)Nc2nnc(-c3ccccc3)s2)C1 (stereo not shown) [F, reference compound]', 't'),
  ('N#Cc1cccc(-c2nnc(C(=O)N[C@@H]3C[C@@H](CF)N(C#N)C3)o2)c1 [Example 3]', 'f'),
  ('COc1ccc(C#N)cc1-c1nnc(C(=O)N[C@@H]2C[C@@H](C)N(C#N)C2)o1 [Example 5]', 'f'),
  ('C[C@H]1CN(C#N)C[C@@H]1NC(=O)c1cnc(-c2ccccc2)s1 [C, reference compound]', 't'),
  ('C[C@@H]1C[C@@H](NC(=O)c2nnc(-c3cccc(C#N)c3)o2)CN1C#N [Example 1]', 'f'),
  ('N#Cc1cccc(-c2ccn3c(C(=O)N[C@@H]4CCN(C#N)C4)cnc3c2)c1 [D]', 't'),
  ('COc1cccc(-c2cc(C(=O)N[C@@H]3CCN(C#N)C3)on2)c1 [A, reference compound]', 't');

====

# Measured on: Cathepsin L (Homo sapiens)
# Sequence (P07711 114-333, species assumed): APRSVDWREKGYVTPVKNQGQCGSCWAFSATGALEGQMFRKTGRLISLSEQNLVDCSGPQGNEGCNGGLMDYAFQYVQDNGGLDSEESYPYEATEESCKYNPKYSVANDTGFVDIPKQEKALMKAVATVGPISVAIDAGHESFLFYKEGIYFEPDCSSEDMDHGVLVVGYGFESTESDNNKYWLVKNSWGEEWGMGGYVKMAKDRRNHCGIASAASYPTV
# Procedure summary: Cathepsin IC50, cathepsin L
# Type: biochemical
Quantity: IC50 (µM)

INSERT INTO assay_data (compound, measured_on, quantity, qualifying_sign, reported) VALUES
  ('COC[C@@H]1C[C@@H](NC(=O)c2nnc(-c3cccc(C#N)c3)o2)CN1C#N [Example 2]', 'Cathepsin L (Homo sapiens)', 'IC50', '=', 32.8),
  ('N#CN1CC[C@H](C(=O)Nc2ncc(-c3ccccc3)s2)C1 [E, reference compound]', 'Cathepsin L (Homo sapiens)', 'IC50', '=', 1),
  ('COc1cccc(-c2cc(C(=O)N[C@@H]3CCN(C#N)C3)on2)c1 [A, reference compound]', 'Cathepsin L (Homo sapiens)', 'IC50', '=', 2.8),
  ('C[C@@H]1C[C@@H](NC(=O)c2nnc(-c3cccc(C#N)c3)o2)CN1C#N [Example 1]', 'Cathepsin L (Homo sapiens)', 'IC50', '=', 30.9),
  ('N#CN1CCC(C(=O)Nc2nnc(-c3ccccc3)s2)C1 (centres unmarked) [F, reference compound]', 'Cathepsin L (Homo sapiens)', 'IC50', '=', 0.24),
  ('C[C@H]1CN(C#N)C[C@@H]1NC(=O)c1cnc(-c2ccccc2)s1 [C, reference compound]', 'Cathepsin L (Homo sapiens)', 'IC50', '=', 1.5),
  ('COc1ccc(C#N)cc1-c1nnc(C(=O)N[C@@H]2C[C@@H](C)N(C#N)C2)o1 [Example 5]', 'Cathepsin L (Homo sapiens)', 'IC50', '>', 300),
  ('COC[C@@H]1C[C@@H](NC(=O)c2nnc(-c3cc(C#N)ccc3OC)o2)CN1C#N [Example 4]', 'Cathepsin L (Homo sapiens)', 'IC50', '=', 54.5);
